I'd appreciate it if you could supply abundance fitness values for the items below.
B1: Ankyrin-2, residues 3571 to 3650; numbered along this chain, Q01484 (parent)
chain: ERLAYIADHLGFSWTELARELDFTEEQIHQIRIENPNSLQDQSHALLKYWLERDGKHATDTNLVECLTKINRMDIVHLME

# Variants of: B1
# ASSAY PROCEDURE: abundance fitness (aPCA) (normalised: wild type 0, dead -1); higher = more abundant; growth selection in yeast, the domain comes from the species named
# RECORDED CONDITIONS: Homo sapiens
Could you respond with only the numeric value?

# input I am curious: what abundance fitness value has been reported for P36V ?
# output -0.14

# input I am curious: what abundance fitness value has been reported for E16L ?
# output 0.032

# input I am curious: what abundance fitness value has been reported for E16G ?
# output -0.065

# input I am curious: what abundance fitness value has been reported for L51F ?
# output 0.037

# input I am curious: what abundance fitness value has been reported for S38I ?
# output -0.396

# input I am curious: what abundance fitness value has been reported for L39F ?
# output -0.013

# input I am curious: what abundance fitness value has been reported for H29M ?
# output -0.133

# input I am curious: what abundance fitness value has been reported for R32N ?
# output -0.206

# input I am curious: what abundance fitness value has been reported for Q40D ?
# output 0.117

# input I am curious: what abundance fitness value has been reported for F12A ?
# output 0.038

# input I am curious: what abundance fitness value has been reported for I33Y ?
# output -0.027

# input I am curious: what abundance fitness value has been reported for Y49K ?
# output -0.052

# input I am curious: what abundance fitness value has been reported for A45L ?
# output -0.002

# input I am curious: what abundance fitness value has been reported for R2P ?
# output -0.454

# input I am curious: what abundance fitness value has been reported for T59A ?
# output -0.035

# input I am curious: what abundance fitness value has been reported for E26M ?
# output -0.041

# input I am curious: what abundance fitness value has been reported for D22T ?
# output -0.048

# input I am curious: what abundance fitness value has been reported for N35T ?
# output -0.071

# input I am curious: what abundance fitness value has been reported for K48T ?
# output 0.04

# input I am curious: what abundance fitness value has been reported for Y5G ?
# output -0.231

# input I am curious: what abundance fitness value has been reported for L51V ?
# output -0.087

# input I am curious: what abundance fitness value has been reported for K48C ?
# output 0.054

# input I am curious: what abundance fitness value has been reported for T15H ?
# output -0.309

# input I am curious: what abundance fitness value has been reported for D54P ?
# output -0.144
